# Tested on: HT-1197 cells
# run_description: Cell-based assay: anti-proliferative activity, Cell Counting Kit-8, 72 hours (HT-1197, negative control without MELK expression)
# condition_parameters: Homo sapiens, HT1197, 72 h, HT1197 cells (negative control), 72 hours
Structures can show the parent of a compound that is named as a salt.
# log10(IC50) values compiled below
measured_attribute: log10(IC50) (log10 of the value in µM)

molecule	system_under_test	val
CN[C@H]1CC[C@H](Nc2c(C(C)=O)cnc3ccc(-c4cc(F)c(O)c(Cl)c4)cc23)CC1	HT-1197 cells	1.00
CC(=O)c1cnc2ccc(-c3cc(Cl)c(O)c(Cl)c3)cc2c1N[C@H]1CC[C@H](C(=O)NCCN(C)C)CC1 [Example 892, hydrochloride]	HT-1197 cells	2.00
O=C(c1cnc2ccc(-c3cc(Cl)c(O)c(Cl)c3)cc2c1N1CCC(C2CCNCC2)CC1)C1CC1	HT-1197 cells	0.71
CCCC(=O)c1cnc2ccc(-c3cc(F)c(O)c(Cl)c3)cc2c1N[C@H]1CC[C@H](CN(C)C)CC1	HT-1197 cells	0.04
CC(=O)c1cnc2cc(F)c(-c3cc(F)c(O)c(Cl)c3)cc2c1N[C@H]1CC[C@H](CN(C)C)CC1 [Example 904, hydrochloride]	HT-1197 cells	0.20
CC(=O)c1cnc2ccc(-c3ccc4nc[nH]c4c3)cc2c1Nc1ccc(N2CCN(C)CC2)nc1 [Example 901, hydrochloride]	HT-1197 cells	0.96
COc1cc(-c2ccc3ncc(C(C)=O)c(Nc4ccc(C(N)=O)cc4)c3c2)cc(Cl)c1O	HT-1197 cells	0.34

====

# System: HT-1197 cells
# run_description: Cell-based assay: anti-proliferative activity, Cell Counting Kit-8, 72 hours (HT-1197, negative control without MELK expression)
# condition_parameters: Homo sapiens, HT1197, 72 h, HT1197 cells (negative control, no MELK expression), 72 hours
Where a name gives a salt, the structure may show the parent alone.
IC50 strictly less than 1 µM = True. Otherwise False.

compound	system_under_test	class_label
N[C@@H]1CCCN(c2ccc(Nc3c(C(=O)C4CC4)cnc4ccc(-c5cc(Cl)c(O)c(Cl)c5)cc34)cn2)C1	HT-1197 cells	True
O=C(c1cnc2ccc(-c3cc(Cl)c(O)c(Cl)c3)cc2c1NC1CCC(N2CC[C@@H](F)C2)CC1)C1CC1 (stereo partly shown)	HT-1197 cells	False
O=C(c1cnc2ccc(-c3cc(F)c(O)c(Cl)c3)cc2c1Nc1cnc(N2CCNCC2)nc1)C1CC1	HT-1197 cells	True
CC(=O)c1cnc2ccc(-c3cnc(C#N)nc3)cc2c1Nc1ccc(CN2CCCC2)cc1	HT-1197 cells	False
COc1cc(-c2ccc3ncc(C(C)=O)c(N[C@@H]4CCC[C@@H](CN(C)C)C4)c3c2)cc(Cl)c1O	HT-1197 cells	False
CC(=O)c1cnc2ccc(-c3cc(F)c(O)c(Cl)c3)cc2c1Nc1ccc(CN2CCN(C)CC2)cc1	HT-1197 cells	False
COc1cc(-c2ccc3ncc(C(=O)C4CC4)c(NCC(=O)N4CCN(C)CC4)c3c2)cc(Cl)c1O	HT-1197 cells	False
CN(C)C1CCN(Cc2ccc(Nc3c(C(=O)C4CC4)cnc4ccc(-c5cc(F)c(O)c(Cl)c5)cc34)cc2)C1 (stereo not shown)	HT-1197 cells	False
CN(C)Cc1ccc(Nc2c(C(=O)C3CC3)cnc3ccc(-c4cnc(C#N)nc4)cc23)nc1	HT-1197 cells	False
CC(=O)c1cnc2ccc(-c3cc(F)c(O)c(Cl)c3)cc2c1Nc1cccc(CCN(C)C)c1	HT-1197 cells	False
COc1cc(-c2ccc3ncc(C(=O)C4CC4)c(N[C@H]4CC[C@H](CN5CCN(C)CC5)CC4)c3c2)cc(Cl)c1O	HT-1197 cells	False
COc1cc(-c2ccc3ncc(C(C)=O)c(N4CCN(C(=O)CN(C)C)CC4)c3c2)cc(Cl)c1O	HT-1197 cells	False
O=C(c1cnc2ccc(-c3cc(F)c(O)c(Cl)c3)cc2c1N1CCN(CCN2CCCC2)CC1)C1CC1	HT-1197 cells	False
CC(=O)c1cnc2ccc(-c3cc(Cl)c(O)c(Cl)c3)cc2c1N[C@H]1CC[C@H](CN2CCNCC2)CC1 [Example 772, dihydrochloride]	HT-1197 cells	False
CC(=O)c1cnc2ccc(-c3cc(Cl)c(O)c(Cl)c3)cc2c1N[C@H]1CCC[C@@H](CN(C)C)C1 [Example 827, hydrochloride]	HT-1197 cells	False
CCC(=O)c1cnc2ccc(-c3cc(Cl)c(O)c(Cl)c3)cc2c1N[C@H]1CC[C@H](CN2CCCC2)CC1	HT-1197 cells	False
CCC(=O)c1cnc2ccc(-c3cc(F)c(O)c(Cl)c3)cc2c1Nc1ccc(N2CCC(N(C)C)C2)nc1 (stereo not shown)	HT-1197 cells	False
COc1cc(-c2ccc3ncc(C(=O)C4CC4)c(N4CCN(C(=O)CN(C)C)CC4)c3c2)cc(Cl)c1O	HT-1197 cells	False
CCN(CC)C1CCC(Nc2c(C(=O)C3CCCC3)cnc3ccc(-c4cc(F)c(O)c(Cl)c4)cc23)CC1 (stereo not shown)	HT-1197 cells	True
CN(C)CCNc1ccc(Nc2c(C(=O)C3CC3)cnc3ccc(-c4cc(F)c(O)c(Cl)c4)cc23)cn1	HT-1197 cells	False
CC(=O)c1cnc2ccc(-c3cc(F)c(O)c(Cl)c3)cc2c1N[C@H]1CCC[C@H](CCN(C)C)C1 [Example 862, hydrochloride]	HT-1197 cells	False
N#Cc1cnc2ccc(-c3ccc(O)c(Cl)c3)cc2c1N1CCC(CN2CCCC2)CC1	HT-1197 cells	False
CCC(=O)c1cnc2ccc(-c3cc(Cl)c(O)c(Cl)c3)cc2c1N[C@H]1CC[C@H](CN(C)C)CC1	HT-1197 cells	True
CC(=O)c1cnc2ccc(-c3cc(F)c(O)c(Cl)c3)cc2c1Nc1cnn(C2CCN(C)C2)c1 (stereo not shown) [Example 813, dihydrochloride]	HT-1197 cells	True
CNC1CCCN(c2ccc(Nc3c(C(=O)C4CC4)cnc4ccc(-c5cc(Cl)c(O)c(Cl)c5)cc34)cn2)C1 (stereo not shown) [Example 807, trihydrochloride]	HT-1197 cells	False
COc1cc(-c2ccc3ncc(C(=O)C4CC4)c(Nc4ccc(CN5CCN(C)CC5)cc4)c3c2)cc(Cl)c1O	HT-1197 cells	False
CC(=O)c1cnc2ccc(-c3cc(Cl)c(O)c(Cl)c3)cc2c1Nc1ccc(N2CCCC(N)C2)nc1 (stereo not shown)	HT-1197 cells	True
CC(=O)c1cnc2ccc(-c3cc(Cl)c(O)c(Cl)c3)cc2c1Nc1ccc(CN2CCCC2)cc1	HT-1197 cells	False
